target: D189Q hMC4R (Homo sapiens, UniProt P32245, D189Q); experiment: cAMP AlphaScreen antagonist assay; format: cell-based
Sequence (P32245 whole entry D189Q): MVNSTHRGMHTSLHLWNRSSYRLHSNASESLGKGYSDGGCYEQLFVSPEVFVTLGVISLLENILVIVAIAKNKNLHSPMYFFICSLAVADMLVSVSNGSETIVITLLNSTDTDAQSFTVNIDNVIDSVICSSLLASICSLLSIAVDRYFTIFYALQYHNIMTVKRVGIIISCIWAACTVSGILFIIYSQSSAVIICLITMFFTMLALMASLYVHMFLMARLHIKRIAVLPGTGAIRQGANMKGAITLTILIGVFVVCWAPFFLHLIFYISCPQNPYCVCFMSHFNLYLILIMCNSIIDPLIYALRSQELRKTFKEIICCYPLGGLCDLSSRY
For each of the compounds below, state its Kb.
Give bare numbers, in µM.

compound="C[C@@H]1NC(=O)[C@H](CO)NC(=O)[C@H](Cc2ccccc2)NC(=O)[C@H](Cc2ccccc2)NC(=O)[C@H](CCCNC(=N)N)NC(=O)[C@@H]2CCCN2C(=O)[C@H]2CCCN2C(=O)[C@H](Cc2ccccc2)NC1=O [MDE3–85c, c[Pro-Arg-Phe-Phe-Ser-Ala-Phe-DPro]]" target_of_assay="D189Q hMC4R (Homo sapiens, UniProt P32245, D189Q)" u=µM numeric_readout=0.158
compound="C[C@@H]1NC(=O)[C@H](CC(=O)O)NC(=O)[C@H](Cc2ccccc2)NC(=O)[C@H](Cc2ccccc2)NC(=O)[C@H](CCCNC(=N)N)NC(=O)[C@@H]2CCCN2C(=O)[C@H]2CCCN2C(=O)[C@H](Cc2ccccc2)NC1=O [MDE3–119-4c, c[Pro-Arg-Phe-Phe-Asp-Ala-Phe-DPro]]" target_of_assay="D189Q hMC4R (Homo sapiens, UniProt P32245, D189Q)" u=µM numeric_readout=1.58
compound="C[C@@H]1NC(=O)[C@H](CCC(=O)O)NC(=O)[C@H](Cc2ccccc2)NC(=O)[C@H](Cc2ccccc2)NC(=O)[C@H](CCCNC(=N)N)NC(=O)[C@@H]2CCCN2C(=O)[C@H]2CCCN2C(=O)[C@H](Cc2ccccc2)NC1=O [MDE3–119-5c, c[Pro-Arg-Phe-Phe-Glu-Ala-Phe-DPro]]" target_of_assay="D189Q hMC4R (Homo sapiens, UniProt P32245, D189Q)" u=µM numeric_readout=2

// Input: C[C@@H]1NC(=O)[C@H](C)NC(=O)[C@H](Cc2ccccc2)NC(=O)[C@H](Cc2ccccc2)NC(=O)[C@H](CCCNC(=N)N)NC(=O)[C@@H]2CCCN2C(=O)[C@H]2CCCN2C(=O)[C@H](Cc2ccccc2)NC1=O [MDE3–154c, c[Pro-Arg-Phe-Phe-Ala-Ala-Phe-DPro]] . Output its Kb only.
0.251

====

target: wildtype hMC4R (Homo sapiens, UniProt P32245); assay: cAMP AlphaScreen agonist / inverse agonist assay; assay type: cell-based; details: WT hMC4R; basal = signal at 10^−12 M
Sequence (P32245 whole entry): as the sequence (P32245 whole entry D189Q) above, with Q189D counted along it
Friendly reminder: Inverse agonist percent decrease from basal signal below -30% is satisfied, at or above is not satisfied.

Worked set:
molecule="CC[C@@H]1NC(=O)[C@H](Cc2ccccc2)NC(=O)[C@H](Cc2ccccc2)NC(=O)[C@H](CCCNC(=N)N)NC(=O)[C@@H]2CCCN2C(=O)[C@H]2CCCN2C(=O)[C@H](Cc2ccccc2)NC(=O)[C@H](C)NC1=O [MDE3–119-2c, c[Pro-Arg-Phe-Phe-Abu-Ala-Phe-DPro]]" label_value="not satisfied"
molecule="C[C@@H]1NC(=O)[C@H](C)NC(=O)[C@H](Cc2ccccc2)NC(=O)[C@H](Cc2ccccc2)NC(=O)[C@H](CCCNC(=N)N)NC(=O)[C@@H]2CCCN2C(=O)[C@H]2CCCN2C(=O)[C@H](Cc2ccccc2)NC1=O [MDE3–154c, c[Pro-Arg-Phe-Phe-Ala-Ala-Phe-DPro]]" label_value=satisfied
molecule="C[C@@H]1NC(=O)[C@H](CN)NC(=O)[C@H](Cc2ccccc2)NC(=O)[C@H](Cc2ccccc2)NC(=O)[C@H](CCCNC(=N)N)NC(=O)[C@@H]2CCCN2C(=O)[C@H]2CCCN2C(=O)[C@H](Cc2ccccc2)NC1=O [MDE3–119-8c, c[Pro-Arg-Phe-Phe-Dap-Ala-Phe-DPro]]" label_value=satisfied
molecule="C[C@@H]1NC(=O)[C@H](CC(=O)O)NC(=O)[C@H](Cc2ccccc2)NC(=O)[C@H](Cc2ccccc2)NC(=O)[C@H](CCCNC(=N)N)NC(=O)[C@@H]2CCCN2C(=O)[C@H]2CCCN2C(=O)[C@H](Cc2ccccc2)NC1=O [MDE3–119-4c, c[Pro-Arg-Phe-Phe-Asp-Ala-Phe-DPro]]" label_value=satisfied

Lab note: Inverse agonist percent decrease from basal signal threshold -30%. Does this molecule come in strictly under it? C[C@@H]1NC(=O)[C@H](CO)NC(=O)[C@H](Cc2ccccc2)NC(=O)[C@H](Cc2ccccc2)NC(=O)[C@H](CCCNC(=N)N)NC(=O)[C@@H]2CCCN2C(=O)[C@H]2CCCN2C(=O)[C@H](Cc2ccccc2)NC1=O [MDE3–85c, c[Pro-Arg-Phe-Phe-Ser-Ala-Phe-DPro]]
not satisfied

Entry source: paper PMC7951137
